- Test system: COS-1
- run-parameters: African green monkey
readout: Tox50

Any idea what its Tox50 is? The molecule is CN(C)c1cc(CN2Cc3ccccc3C2)c(O)c2c1C[C@H]1C[C@H]3[C@H](N(C)C)C(O)=C(C(N)=O)C(=O)[C@@]3(O)C(O)=C1C2=O [AI]
>100 µg/mL

Cool, now CN(C)c1cc(CN2CCC3CCCCC3C2)c(O)c2c1C[C@H]1C[C@H]3[C@H](N(C)C)C(O)=C(C(N)=O)C(=O)[C@@]3(O)C(O)=C1C2=O (some centres unmarked) [AJ]
>100 µg/mL

Next molecule up: CC(C)c1cc(CN2CC=CCC2)c(O)c2c1C[C@H]1C[C@H]3[C@H](N(C)C)C(O)=C(C(N)=O)C(=O)[C@@]3(O)C(O)=C1C2=O [AF]
>100 µg/mL

Moving on to the next molecule: COc1ccc(-c2cc(CNC(C)CF)c(O)c3c2C[C@H]2C[C@H]4[C@H](N(C)C)C(O)=C(C(N)=O)C(=O)[C@@]4(O)C(O)=C2C3=O)cn1 (some centres unmarked) [AM]
>100 µg/mL

Here is the next molecule: CN(C)c1cc(CN2CCC(F)(F)CC2)c(O)c2c1C[C@H]1C[C@H]3[C@H](N(C)C)C(O)=C(C(N)=O)C(=O)[C@@]3(O)C(O)=C1C2=O [Compound H]
>100 µg/mL

----------
- Test system: Protein synthesis of S. aureus RN450
- experiment-notes: microbe, parasite or virus in culture
- Format: cell-based
- run-parameters: Staphylococcus aureus, read-out: Protein synthesis IC50
Kindly supply the reported IC50 values for the records listed here.
Report only the number, with the unit µg/mL understood.

// IC50 lookup, key: CN(C)[C@@H]1C(O)=C(C(N)=O)C(=O)[C@@]2(O)C(O)=C3C(=O)c4c(O)ccc(-c5ccc(CO)cc5)c4C[C@H]3C[C@@H]12
0.19

Again, but for CN(C)[C@@H]1C(O)=C(C(N)=O)C(=O)[C@@]2(O)C(O)=C3C(=O)c4c(O)ccc(-c5ccc(NC(=O)c6ccno6)cc5)c4C[C@H]3C[C@@H]12
0.07

Another molecule to check: CN(C)[C@@H]1C(O)=C(C(N)=O)C(=O)[C@@]2(O)C(O)=C3C(=O)c4c(O)ccc(C#Cc5ccc(N)cc5)c4C[C@H]3C[C@@H]12
0.14

Now the molecule CO/N=C/c1cc(-c2ccc(O)c3c2C[C@H]2C[C@H]4[C@H](N(C)C)C(O)=C(C(N)=O)C(=O)[C@@]4(O)C(O)=C2C3=O)ccc1OC
1.9

----------
- Test system: CHO-K1
- run-parameters: Chinese hamster
For each entry below, report its Tox50 value.

Which Tox50 is reported for this compound? CN(C)c1cc(CN2Cc3ccccc3C2)c(O)c2c1C[C@H]1C[C@H]3[C@H](N(C)C)C(O)=C(C(N)=O)C(=O)[C@@]3(O)C(O)=C1C2=O [AI]
>100 µg/mL

Note, next up: CN(C)c1cc(CN2CCC(F)(F)CC2)c(O)c2c1C[C@H]1C[C@H]3[C@H](N(C)C)C(O)=C(C(N)=O)C(=O)[C@@]3(O)C(O)=C1C2=O [Compound H]
>100 µg/mL

Now consider COc1ccc(-c2cc(CNC(C)CF)c(O)c3c2C[C@H]2C[C@H]4[C@H](N(C)C)C(O)=C(C(N)=O)C(=O)[C@@]4(O)C(O)=C2C3=O)cn1 (some centres unmarked) [AM] .
92.85 µg/mL

CC(C)c1cc(CN2CC=CCC2)c(O)c2c1C[C@H]1C[C@H]3[C@H](N(C)C)C(O)=C(C(N)=O)C(=O)[C@@]3(O)C(O)=C1C2=O [AF] , same question.
>100 µg/mL

Same question for CN(C)c1cc(CN2CCC3CCCCC3C2)c(O)c2c1C[C@H]1C[C@H]3[C@H](N(C)C)C(O)=C(C(N)=O)C(=O)[C@@]3(O)C(O)=C1C2=O (some centres unmarked) [AJ] please.
>100 µg/mL
